TARGET_UNDER_TEST: Lysosomal alpha-glucosidase (Homo sapiens) (UniProt P10253)
METHOD_NOTES: Activation of purified human recombinant acid alpha-glucosidase using resorufin alpha-D-glucopyranoside as substrate at 100 uM after 45 mins relative to basal
Active and inactive are the calls of the source. No cut-off for these calls is given here.
READOUT_TYPE: Activity

These solved cases illustrate the format of a correct answer.
CCCN1CNc2c(c(=O)[nH]c(=S)n2CCc2ccc(Cl)c(Cl)c2)C1; 88.8%
CCCN1CNc2c(c(=O)[nH]c(=S)n2CCc2cc(OC)ccc2OC)C1; 327%
CCCN1CNc2c(c(=O)[nH]c(=S)n2CCc2ccc(Cl)cc2)C1; 120%
COc1ccc(CCn2c(=S)[nH]c(=O)c3nc[nH]c32)cc1OC; inactive

Go through the list and state Activity for each entry.
1. COc1ccc(C#Cc2c[nH]c(=O)c3cncnc23)cc1OC
2. CCCN1CNc2c(c(=O)[nH]c(=S)n2CCc2cc(Cl)ccc2Cl)C1
3. COc1ccc(CCn2c(=S)[nH]c(=O)c3nccnc32)cc1OC
4. CCCN1CNc2c(c(=O)[nH]c(=S)n2CCc2ccc(OC)cc2OC)C1

1: inactive; 2: 325%; 3: inactive; 4: 308%

Go through the list and state Activity for each entry.
1. CCCN1CNc2c(c(=O)[nH]c(=S)n2CCc2ccsc2)C1
2. CCCN1CNc2c(c(=O)[nH]c(=S)n2CCc2cccc(Cl)c2)C1
3. COc1ccc(CCn2c3c(c(=O)[nH]c2=S)CN(C)CN3)cc1OC
4. CCCN1CNc2c(c(=O)[nH]c(=S)n2CCc2ccc(Cl)cc2Cl)C1
5. CCCN1CNc2c(c(=O)[nH]c(=S)n2CCc2ccccc2C)C1

1. 192%
2. 197%
3. 282%
4. 321%
5. 136%

====

TARGET_UNDER_TEST: Lysosomal alpha-glucosidase (Homo sapiens)
METHOD_NOTES: Activation of purified human recombinant acid alpha-glucosidase using resorufin alpha-D-glucopyranoside as substrate at 100 uM after 45 mins relative to basal
The source made the active and inactive calls. The calls are words filed in the database; no cut-off is given here.
READOUT_TYPE: Activity

CCCN1CNc2c(c(=O)[nH]c(=S)n2CCc2ccc(OC)cc2)C1; 309%
CCCN1CNc2c(c(=O)[nH]c(=S)n2CCc2cccc(Cl)c2Cl)C1; 346%
CCCN1CNc2c(c(=O)[nH]c(=S)n2CCc2cc(C)cc(C)c2)C1; 218%
CCCN1CNc2c(c(=O)[nH]c(=S)n2CCc2cc(Cl)cc(Cl)c2)C1; 316%
CCCN1CNc2c(c(=O)[nH]c(=S)n2CCc2ccccc2OC)C1; 243%

Go through the list and state Activity for each entry.
1. CCCN1CNc2c(c(=O)[nH]c(=S)n2CCc2ccccc2)C1
2. CCCN1CNc2c(c(=O)[nH]c(=S)n2CCc2ccc(OC)c(OC)c2)C1
3. Clc1ncc(C#Cc2ccccc2)c2ncncc12
4. COc1ccc(CCn2c3c(c(=O)[nH]c2=S)CN(C(C)C)CN3)cc1OC
5. COc1ccc(C(=O)NC2(C(F)(F)F)C(=O)Nc3c2c(=O)[nH]c(=O)n3CCc2ccc(OC)c(OC)c2)cc1 (configuration not stated)

["142%", "356%", "inactive", "234%", "121%"]

Go through the list and state Activity for each entry.
1. O=c1[nH]cc(CCc2ccccc2)c2ncncc12
2. COc1ccc(CCn2c3c(c(=O)[nH]c2=S)CN(c2ccccc2)CN3)cc1OC
3. CCCN1CNc2c(c(=O)[nH]c(=S)n2CCc2ccc3c(c2)OCCO3)C1
4. CCCN1CNc2c(c(=O)[nH]c(=S)n2CCC)C1

["inactive", "275%", "328%", "inactive"]

Go through the list and state Activity for each entry.
1. CCCN1CNc2c(c(=O)[nH]c(=S)n2CC(C)(C)C)C1
2. CCCN1CNc2c(c(=O)[nH]c(=O)n2CCc2ccc(OC)c(OC)c2)C1
3. CCCN1CNc2c(c(=O)[nH]c(=S)n2CCc2ccccc2Cl)C1
4. COc1ccc(CCn2c3c(c(=O)[nH]c2=O)C(NC(=O)c2cccs2)(C(F)(F)F)C(=O)N3)cc1OC (configuration not stated)
5. CCCN1CNc2c(c(=O)[nH]c(=S)n2CCc2c(Cl)cccc2Cl)C1
6. COc1ccc(CCn2c(=S)[nH]c(=O)c3c(C)cc(C)nc32)cc1OC
7. COc1ccc(CCn2c3c(c(=O)[nH]c2=S)CN(CC(C)C)CN3)cc1OC

1. inactive
2. 297%
3. 311%
4. 64.2%
5. 332%
6. inactive
7. 338%

Item COc1ccc(CCc2c[nH]c(=O)c3cncnc23)cc1OC has what recorded Activity?
inactive

====

TARGET_UNDER_TEST: Lysosomal alpha-glucosidase (Homo sapiens) (UniProt P10253)
METHOD_NOTES: Activation of purified human recombinant acid alpha-glucosidase using resorufin alpha-D-glucopyranoside as substrate at 100 uM after 45 mins relative to basal
Activity calls are given as the source filed them. The rule behind the calls is not given here.
READOUT_TYPE: Activity

CCCN1CNc2c(c(=O)[nH]c(=S)n2CCc2cccc(C)c2)C1; 295%
CCCN1CNc2c(c(=O)[nH]c(=S)n2CCc2ccccn2)C1; 30.6%
CCCN1CNc2c(c(=O)[nH]c(=S)n2CCc2cccc(OC)c2)C1; 302%
CCCN1CNc2c(c(=O)[nH]c(=S)n2CCc2c(OC)cccc2OC)C1; 227%
CCCN1CNc2c(c(=O)[nH]c(=S)n2CCc2ccc(C)cc2C)C1; 323%

Go through the list and state Activity for each entry.
1. CCCN1CNc2c(c(=O)[nH]c(=S)n2CCc2ccc(C)c(C)c2)C1
2. COc1ccc(C#Cc2cnc(Cl)c3cncnc23)cc1OC
3. CCCN1CNc2c(c(=O)[nH]c(=S)n2CCc2c(C)cccc2C)C1
4. CCCN1CNc2c(c(=O)[nH]c(=S)n2CCc2cccc(C)c2C)C1

["338%", "inactive", "112%", "300%"]

Go through the list and state Activity for each entry.
1. CCCN1CNc2c(c(=O)[nH]c(=S)n2CC(C)C)C1
2. CCCN1CNc2c(c(=O)[nH]c(=S)n2CCc2cccs2)C1

["inactive", "221%"]

====

TARGET_UNDER_TEST: Lysosomal alpha-glucosidase (Homo sapiens) (UniProt P10253)
METHOD_NOTES: Activation of purified human recombinant acid alpha-glucosidase using resorufin alpha-D-glucopyranoside as substrate at 100 uM after 45 mins relative to basal
Active and inactive are the calls of the source. The calls are words filed in the database; no cut-off is given here.
READOUT_TYPE: Activity

These solved cases illustrate the format of a correct answer.
COc1ccc(CCn2c3c(c(=O)[nH]c2=S)CN(Cc2ccccc2)CN3)cc1OC; 335%
CCCN1CNc2c(c(=O)[nH]c(=S)n2CCc2cc(C)ccc2C)C1; 245%
CCCN1CNc2c(c(=O)[nH]c(=S)n2CCc2cc(OC)cc(OC)c2)C1; 332%
CCCN1CNc2c(c(=O)[nH]c(=S)n2CCCc2ccccc2)C1; 166%
CCCN1CNc2c(c(=O)[nH]c(=S)n2CCc2ccc(C)cc2)C1; 300%

Go through the list and state Activity for each entry.
1. CCCN1CNc2c(c(=O)[nH]c(=S)n2CCc2ccc(OCC)c(OCC)c2)C1
2. O=c1[nH]cc(C#Cc2ccccc2)c2ncncc12

1. 306%
2. inactive

Go through the list and state Activity for each entry.
1. CCCN1CNc2c(c(=O)[nH]c(=S)n2CCc2cccc(OC)c2OC)C1
2. COc1ccc(CCn2c(N)cc(=O)[nH]c2=S)cc1OC
3. CCCCn1c(N)c(NCC)c(=O)[nH]c1=O
4. CCCN1CNc2c(c(=O)[nH]c(=S)n2Cc2ccc(OCC)c(OCC)c2)C1

1. 262%
2. 32.1%
3. inactive
4. 365%
